// IC50 lookup, one value per entry
TEST DESCRIPTION: Inhibition of goat brain tubulin assembly incubated for 10 mins by spectrophotometry
Parameters: species or system Ovis aries
EXPERIMENTAL READOUT: IC50 (µM)

COc1ccc(/C=C\c2cc(OC)c(OC)c(OC)c2)cc1O [COMBRETASTATIN A4] ... 1.7
COc1ccc(-c2[nH]c(N)nc2-c2cc(OC)c(OC)c(OC)c2)cc1 ... 13
COc1cc(-c2nc(N)[nH]c2-c2cnc3ccccc3c2)cc(OC)c1OC ... 1.6
COc1ccc(-c2[nH]c(N)nc2-c2cc(OC)c(OC)c(OC)c2)cc1OC ... 11

* * *

// IC50 lookup, one value per entry
System: MDA-MB-231
TEST DESCRIPTION: Antiproliferative activity against human MDA-MB-231 cells incubated for 24 hrs by sulforhodamine B assay
Type: functional, cell-based
TEST CONTEXT: MDA-MB-231, 24 h
EXPERIMENTAL READOUT: IC50 (nM)

COc1cc(-c2nc(N)[nH]c2-c2cnc3ccccc3c2)cc(OC)c1OC ... 96
COc1ccc(/C=C\c2cc(OC)c(OC)c(OC)c2)cc1O [COMBRETASTATIN A4] ... 331

* * *

TEST DESCRIPTION: Binding affinity to goat brain tubulin incubated for 10 mins by tryptophan fluorescence quenching based assay
Set-up: species or system Ovis aries
EXPERIMENTAL READOUT: Kd (µM)

COc1cc(-c2nc(N)[nH]c2-c2cnc3ccccc3c2)cc(OC)c1OC ... 1.9

* * *

// Kd lookup, one value per entry
TEST DESCRIPTION: Binding affinity to goat brain tubulin assessed as reduction in binding of 5-(Quinolin-3-yl)-4-(3,4,5-trimethoxyphenyl)-1H-imidazol-2-amine to tubulin incubated for 15 mins by fluorescence based assay
Set-up: species or system Ovis aries
EXPERIMENTAL READOUT: Kd (nM)

COc1cc([C@@H]2c3cc4c(cc3[C@H](O)[C@H]3COC(=O)[C@H]23)OCO4)cc(OC)c1OC ... 300
COc1ccc(/C=C\c2cc(OC)c(OC)c(OC)c2)cc1O ... 680
